Test system: HeLa
protocol_summary: cell viability (CellTiter-Glo) relative to median of lowest-dilution wells of all drugs (fraction); higher = more viable cells
reported_conditions: drug concentration (unit not stated): 10; genotype: DDX11 knockout
Where a name gives a salt, the structure may show the parent alone.
readout_kind: cell viability

1) CC(=O)Nc1cccc(-n2c(=O)n(C3CC3)c(=O)c3c(Nc4ccc(I)cc4F)n(C)c(=O)c(C)c32)c1 :: 0.46
2) O=c1cc(-c2cccc3c2Sc2ccccc2S3)oc(N2CCOCC2)c1 :: 0.843
3) Nc1ncn([C@H]2C[C@H](O)[C@@H](CO)O2)c(=O)n1 :: 0.867
4) C=CCn1c(=O)c2cnc(Nc3ccc(N4CCN(C)CC4)cc3)nc2n1-c1cccc(C(C)(C)O)n1 :: 0.0863
5) COc1cc([C@@H]2c3cc4c(cc3[C@@H](O[C@@H]3O[C@@H]5CO[C@@H](C)O[C@H]5[C@H](O)[C@H]3O)[C@H]3COC(=O)[C@H]23)OCO4)cc(OC)c1O [Etoposide (VP-16)] :: 0.0411
6) Nc1nc2[nH]cnc2c(=S)[nH]1 :: 0.239
7) O=c1[nH]cc(F)c(=O)[nH]1 :: 0.817
8) C[C@@]1(CO)[C@H](O)CC[C@@]2(C)[C@H]1CC[C@H]1C[C@@H]3C[C@@]12CC[C@]3(O)CO :: 0.182
9) Cc1cc(Nc2cc(N3CCN(C)CC3)nc(Sc3ccc(NC(=O)C4CC4)cc3)n2)n[nH]1 :: 0.823
10) CCn1nc(C2CCN(C(=O)CCO)CC2)nc1-c1cnc(N)c(-c2nnc(C(C)(C)C)o2)n1 :: 0.785
11) CCN(CCO)CCCOc1ccc2c(Nc3cc(CC(=O)Nc4cccc(F)c4)[nH]n3)ncnc2c1 :: 0.813
12) Nc1ncn([C@@H]2O[C@H](CO)[C@@H](O)[C@H]2O)c(=O)n1 :: 0.872
13) Nc1nc(F)nc2c1ncn2[C@@H]1O[C@H](COP(=O)(O)O)[C@@H](O)[C@@H]1O [Fludarabine Phosphate (Fludara)] :: 1.07
14) COC1=CC(c2cc3ccccc3[nH]2)=N/C1=C\c1[nH]c(C)cc1C [Obatoclax mesylate] :: 0.141
15) CC[C@H](CO)Nc1nc(NCc2ccccc2)c2ncn(C(C)C)c2n1 [Seliciclib (Roscovitine)] :: 1.01
16) CCCCCCNC(=O)n1cc(F)c(=O)[nH]c1=O :: 0.857
17) O=c1cc(N2CCOCC2)oc2c(-c3cccc4c3sc3ccccc34)cccc12 :: 0.834
18) O=C(O)CCCc1ccc(N(CCCl)CCCl)cc1 :: 0.925
19) C[C@@H]1COCCN1c1cc(-c2ccnn2C)c2ccnc(-c3ccn[nH]3)c2n1 :: 0.19

###

System: HeLa
protocol_summary: cell viability (CellTiter-Glo) relative to median of lowest-dilution wells of all drugs (fraction); higher = more viable cells
reported_conditions: drug concentration (unit not stated): 0.37; genotype: control (DDX11 wild type)
Where a name gives a salt, the structure may show the parent alone.
Mark class 1 only when cell viability stays strictly below 0.9. Values equal to the cut-off are class 0.

1. CN1CC[C@H](c2c(O)cc(O)c3c(=O)cc(-c4ccccc4Cl)oc23)[C@H](O)C1 :: class 1
2. COc1ncc(-c2ccc3nccc(-c4ccnnc4)c3c2)cc1NS(=O)(=O)c1ccc(F)cc1F :: class 1
3. Nc1nc(Cl)nc2c1ncn2[C@@H]1O[C@H](CO)[C@@H](O)[C@@H]1F :: class 1
4. Cn1cnc2c(F)c(Nc3ccc(Br)cc3Cl)c(C(=O)NOCCO)cc21 :: class 0
5. COc1cc([C@@H]2c3cc4c(cc3[C@@H](O[C@@H]3O[C@@H]5CO[C@@H](C)O[C@H]5[C@H](O)[C@H]3O)[C@H]3COC(=O)[C@H]23)OCO4)cc(OC)c1O [Etoposide (VP-16)] :: class 0
6. CC[C@H](CO)Nc1nc(NCc2ccccc2)c2ncn(C(C)C)c2n1 [Seliciclib (Roscovitine)] :: class 0
7. COc1ccc(C2=N[C@@H](c3ccc(Cl)cc3)[C@@H](c3ccc(Cl)cc3)N2C(=O)N2CCNC(=O)C2)c(OC(C)C)c1 :: class 0
8. Nc1nc(Cl)nc2c1ncn2[C@H]1C[C@H](O)[C@@H](CO)O1 :: class 0
9. Nc1ccn([C@@H]2O[C@H](CO)[C@@H](O)C2(F)F)c(=O)n1 [Gemcitabine HCl (Gemzar)] :: class 1
10. CC1(C)CCC(c2ccc(Cl)cc2)=C(CN2CCN(c3ccc(C(=O)NS(=O)(=O)c4ccc(N[C@H](CCN5CCOCC5)CSc5ccccc5)c(S(=O)(=O)C(F)(F)F)c4)cc3)CC2)C1 :: class 0
11. CCS(=O)(=O)Nc1ccc2c(c1)/C(=C(/Nc1ccc(CN3CCCCC3)cc1)c1ccccc1)C(=O)N2 :: class 0
12. CC[C@]1(O)C[C@@H]2CN(CCc3c([nH]c4ccccc34)[C@@](C(=O)OC)(c3cc4c(cc3OC)N(C)[C@H]3[C@@](O)(C(=O)OC)[C@H](OC(C)=O)[C@]5(CC)C=CCN6CC[C@]43[C@@H]65)C2)C1 :: class 1
13. NC(=O)c1ccc(I)c([N+](=O)[O-])c1 :: class 0
14. C[C@@]1(CO)[C@H](O)CC[C@@]2(C)[C@H]1CC[C@H]1C[C@@H]3C[C@@]12CC[C@]3(O)CO :: class 0
15. COc1cccc2c1C(=O)c1c(O)c3c(c(O)c1C2=O)C[C@@](O)(C(=O)CO)C[C@@H]3O[C@H]1C[C@H](N)[C@@H](O)[C@H](C)O1 [Epirubicin Hydrochloride] :: class 1
16. O=c1cc(-c2cccc3c2Sc2ccccc2S3)oc(N2CCOCC2)c1 :: class 0
17. CN(Cc1cnc2nc(N)nc(N)c2n1)c1ccc(C(=O)N[C@@H](CCC(=O)O)C(=O)O)cc1 [Abitrexate (Methotrexate)] :: class 1
18. CC(C)C[C@H](NC(=O)[C@H](Cc1ccccc1)NC(=O)c1cnccn1)B(O)O :: class 1
19. Nc1nc2[nH]cc(CCc3ccc(C(=O)N[C@@H](CCC(=O)O)C(=O)O)cc3)c2c(=O)[nH]1 :: class 1
20. N.N.[Cl][Pt][Cl] [Cisplatin] :: class 1
21. COc1cc2c(cc1O)CCN[C@]21CS[C@@H]2c3c(OC(C)=O)c(C)c4c(c3[C@H](COC1=O)N1[C@@H]2[C@H]2c3c(cc(C)c(OC)c3O)C[C@@H]([C@@H]1O)N2C)OCO4 :: class 0
22. CCc1cnn2c(NCc3ccc[n+]([O-])c3)cc(N3CCCC[C@H]3CCO)nc12 :: class 1
23. C[C@@H]1COCCN1c1cc(-c2ccnn2C)c2ccnc(-c3ccn[nH]3)c2n1 :: class 0
24. CC(C)(C)Cn1c(N)nc2ccc(-c3[nH]c(C(C)(C)C)nc3-c3ccc(F)cc3)nc21 :: class 0
25. COC1=CC(c2cc3ccccc3[nH]2)=N/C1=C\c1[nH]c(C)cc1C [Obatoclax mesylate] :: class 1
26. COc1cc(Nc2ncc3c(n2)-c2ccc(Cl)cc2C(c2c(F)cccc2OC)=NC3)ccc1C(=O)O :: class 1

###

Tested on: HeLa
protocol_summary: cell viability (CellTiter-Glo) relative to median of lowest-dilution wells of all drugs (fraction); higher = more viable cells
reported_conditions: drug concentration (unit not stated): 0.37; genotype: control (DDX11 wild type)
Below, each entry is listed alongside its reported cell viability.
readout_kind: cell viability

1) C[C@@H]1COCCN1c1cc(C2([S@](C)(=N)=O)CC2)nc(-c2cc[nH]c3nccc2-3)n1 [AZD6738] :: 0.971
2) Nc1nc2[nH]cnc2c(=S)[nH]1 [Thioguanine] :: 0.762
3) O=C(Nc1c[nH]nc1-c1nc2ccc(CN3CCOCC3)cc2[nH]1)NC1CC1 [AT9283] :: 1.07
4) CO[C@H]1C[C@@H]2CC[C@@H](C)[C@@](O)(O2)C(=O)C(=O)N2CCCC[C@H]2C(=O)O[C@H]([C@H](C)C[C@@H]2CC[C@@H](O)[C@H](OC)C2)CC(=O)[C@H](C)/C=C(\C)[C@@H](O)[C@@H](OC)C(=O)[C@H](C)C[C@H](C)/C=C/C=C/C=C/1C [Rapamycin (Sirolimus)] :: 0.903
5) NC(=O)Nc1cc(-c2cccc(F)c2)sc1C(=O)N[C@H]1CCCNC1 [AZD7762] :: 0.896
6) Nc1nc(F)nc2c1ncn2[C@@H]1O[C@H](COP(=O)(O)O)[C@@H](O)[C@@H]1O [Fludarabine Phosphate (Fludara)] :: 1.04
7) Nc1ncn([C@@H]2O[C@H](CO)[C@@H](O)[C@H]2O)c(=O)n1 [Azacitidine] :: 1.05

###

Test system: HeLa
protocol_summary: cell viability (CellTiter-Glo) relative to median of lowest-dilution wells of all drugs (fraction); higher = more viable cells
reported_conditions: drug concentration (unit not stated): 0.12; genotype: control (DDX11 wild type)
Structures can show the parent of a compound that is named as a salt.
Below, each entry is listed alongside its reported cell viability.
readout_kind: cell viability

1) COc1cccc2c1C(=O)c1c(O)c3c(c(O)c1C2=O)C[C@@](O)(C(=O)CO)C[C@@H]3O[C@H]1C[C@H](N)[C@@H](O)[C@H](C)O1 [Epirubicin Hydrochloride] :: 0.902
2) CO[C@H]1C[C@@H]2CC[C@@H](C)[C@@](O)(O2)C(=O)C(=O)N2CCCC[C@H]2C(=O)O[C@H]([C@H](C)C[C@@H]2CC[C@@H](O)[C@H](OC)C2)CC(=O)[C@H](C)/C=C(\C)[C@@H](O)[C@@H](OC)C(=O)[C@H](C)C[C@H](C)/C=C/C=C/C=C/1C [Rapamycin (Sirolimus)] :: 0.887
3) CNC(=O)c1cccc(-c2ccc3c(N4CCOC[C@@H]4C)nc(N4CCOC[C@@H]4C)nc3n2)c1 :: 0.973
4) CC(C)(C)Cn1c(N)nc2ccc(-c3[nH]c(C(C)(C)C)nc3-c3ccc(F)cc3)nc21 :: 1.03
5) Nc1ccn([C@@H]2O[C@H](CO)[C@@H](O)C2(F)F)c(=O)n1 [Gemcitabine HCl (Gemzar)] :: 0.0767
6) COc1ccc(C2=N[C@@H](c3ccc(Cl)cc3)[C@@H](c3ccc(Cl)cc3)N2C(=O)N2CCNC(=O)C2)c(OC(C)C)c1 :: 0.978
